System: ZR-75-1 Tam1
Assay: viability inhibition at highest dose (% inhibition); higher = more growth inhibition
Conditions: 4-OH-tamoxifen in medium 1 µM; 72 h
Rule for this label: Fulfilled means viability inhibition at highest dose is less than 4; Not fulfilled means viability inhibition at highest dose is at least 4.

Examples from the recorded data:
Compound	Class Name
C[C@@H]1CCN(C(=O)CC#N)C[C@@H]1N(C)c1ncnc2[nH]ccc12 [Tofacitinib (Tasocitinib)] (drug 5000 nM)	Not fulfilled
Nc1nc2[nH]cnc2c(=S)[nH]1 [Thioguanine] (drug 10000 nM)	Not fulfilled
O=P1(NCCCl)OCCCN1CCCl (centres undefined) [Ifosfamide] (drug 10000 nM)	Fulfilled
O=C(CCCCCCC(=O)Nc1ccc([C@H]2O[C@@H](CSc3nc(-c4ccccc4)c(-c4ccccc4)o3)C[C@@H](c3ccc(CO)cc3)O2)cc1)NO [Tubacin] (drug 10000 nM)	Not fulfilled
O=c1[nH]cc(F)c(=O)[nH]1 [Fluorouracil] (drug 10000 nM)	Not fulfilled

Please determine if C[C@]12O[C@H](C[C@]1(O)CO)n1c3ccccc3c3c4c(c5c6ccccc6n2c5c31)CNC4=O [Lestaurtinib] (drug 1000 nM) is below 4 in terms of viability inhibition at highest dose. Fulfilled

Please determine if C=CC(=O)N1CCC[C@@H](n2nc(-c3ccc(Oc4ccccc4)cc3)c3c(N)ncnc32)C1 (drug 1000 nM) is below 4 in terms of viability inhibition at highest dose. Fulfilled

Please determine if Nc1nc(F)nc2c1ncn2[C@@H]1O[C@H](CO)[C@@H](O)[C@@H]1O [Fludarabine] (drug 10000 nM) is below 4 in terms of viability inhibition at highest dose. Fulfilled

Please determine if CN(N=O)C(=O)N[C@@H](C=O)[C@@H](O)[C@H](O)[C@H](O)CO [Streptozocin] (drug 10000 nM) is below 4 in terms of viability inhibition at highest dose. Fulfilled

====

System: ZR-75-1
Assay: drug sensitivity score (DSS) (DSS (dimensionless)); higher = more sensitive; extreme values may be limits of the assay
Conditions: 4-OH-tamoxifen in medium 1 µM; 72 h
Structures can show the parent of a compound that is named as a salt.
Metric: drug sensitivity score
Answers are plain numbers.

Worked examples, 5 compounds total:
Compound	Endpoint Result
C/C(=C\c1csc(C)n1)[C@@H]1C[C@@H]2O[C@]2(C)CCC[C@H](C)[C@H](O)[C@@H](C)C(=O)C(C)(C)[C@@H](O)CC(=O)N1 [Ixabepilone]	0
O=C(c1cc(Cc2n[nH]c(=O)c3ccccc23)ccc1F)N1CCN(C(=O)C2CC2)CC1	0
CCCC(CCC)C(=O)O	0
COc1cc2c(Oc3ccc(NC(=O)C4(C(=O)Nc5ccc(F)cc5)CC4)cc3F)ccnc2cc1OCCCN1CCOCC1	0
COC(=O)C[C@](O)(CCCC(C)(C)O)C(=O)O[C@@H]1C(OC)=C[C@]23CCCN2CCc2cc4c(cc2[C@H]13)OCO4	15.2

Could I get drug sensitivity score for every one of these entries?
1. CC(C)C[C@@H](C(=O)N[C@H](C(=O)OC1CCCC1)c1ccccc1)[C@H](O)C(=O)NO
2. CC1(C)NC(=O)N(c2ccc([N+](=O)[O-])c(C(F)(F)F)c2)C1=O [Nilutamide]
3. CC(=O)OC[C@H]1O[C@@H]([S-])[C@H](OC(C)=O)[C@@H](OC(C)=O)[C@@H]1OC(C)=O.CCP(CC)CC.[Au+]
4. Cc1ccc([N+](=O)[O-])cc1S(=O)(=O)N(C)/N=C/c1cnc2ccc(Br)cn12 [PIK-75 (HCl)]

1. 3.37
2. 0
3. 1.38
4. 16.7

Could I get drug sensitivity score for every one of these entries?
1. CCN(CC)CCNC(=O)c1c(C)[nH]c(/C=C2\C(=O)Nc3ccc(F)cc32)c1C
2. NCC(=O)CCC(=O)O
3. O=P1(NCCCl)OCCCN1CCCl (centres undefined) [Ifosfamide]
4. Cc1ccc(NC(=O)c2ccc(CN3CCN(C)CC3)cc2)cc1Nc1nccc(-c2cccnc2)n1
5. CCOc1cc2ncc(C#N)c(Nc3ccc(OCc4ccccn4)c(Cl)c3)c2cc1NC(=O)/C=C/CN(C)C
6. Cn1nnc2c(C(N)=O)ncn2c1=O [Temozolomide]
7. CO[C@H](C(=O)[C@@H](O)[C@@H](C)O)[C@@H]1Cc2cc3cc(O[C@H]4C[C@@H](O[C@@H]5C[C@@H](O)[C@H](O)[C@@H](C)O5)[C@H](O)[C@@H](C)O4)c(C)c(O)c3c(O)c2C(=O)[C@H]1O[C@H]1C[C@@H](O[C@@H]2C[C@@H](O)[C@@H](O[C@@H]3C[C@](C)(O)[C@H](O)[C@@H](C)O3)[C@@H](C)O2)[C@H](O)[C@@H](C)O1
8. CC1=C(/C=C/C(C)=C/C=C/C(C)=C/C(=O)O)C(C)(C)CCC1

1. 0
2. 0
3. 0
4. 0.933
5. 0
6. 0
7. 19
8. 0

Could I get drug sensitivity score for every one of these entries?
1. CCCCCCCCc1ccc(CCC(N)(CO)CO)cc1
2. O=P1(N(CCCl)CCCl)NCCCO1 (centres undefined) [Clafen (Cyclophosphamide, Endoxan)]
3. NC1(c2ccc(-c3nc4ccn5c(=O)[nH]nc5c4cc3-c3ccccc3)cc2)CCC1
4. O=C(O)C(=O)O.[NH-][C@@H]1CCCC[C@H]1[NH-].[Pt+2]
5. COc1cccc2c1C(=O)c1c(O)c3c(c(O)c1C2=O)C[C@@](O)(C(C)=O)C[C@@H]3O[C@H]1C[C@H](N)[C@H](O)[C@H](C)O1

1: 2.36; 2: 0; 3: 7.22; 4: 0; 5: 5.38
